# GI50 annotations
Test system: XF498
method: NCI tumour cell line growth inhibition, 48 h
Active and inactive are the calls of the source. Rule as the data show it: active = GI50 up to about 1.1 µM and inactive = higher.

compound	GI50
C/C(CC(=O)Nc1ccc([N+](=O)[O-])cc1)=N/N=C(N)N	> 100 µM (inactive)
CC1(C)CCc2cc3c(cc2O1)OC(C)(C)CC3=O	50.8 µM (inactive)
CCOC(=O)[C@H]1Nc2c(cccc2[N+](=O)[O-])C2c3ccccc3CC21 (stereo not given in full)	> 100 µM (inactive)
CC(=O)C1C(=O)C(=O)N(c2ccccc2C(C)C)C1=O (stereo not given)	> 100 µM (inactive)
COc1ccc(C23C(=O)c4ccccc4N2O[C@H]2C(=O)N(c4ccccc4)C(=O)[C@H]23)cc1 (stereo not given in full)	> 100 µM (inactive)
CC(C)=CCC/C(C)=C/CC/C(C)=C/C1CCC(=O)C1(C)C (stereo not given)	18.2 µM (inactive)
CCCCCC1CC(C(C)=O)CN1c1ccc(F)cc1 (stereo not given)	21.1 µM (inactive)
CC(c1cccc2ccccc12)/[N+]([O-])=C/c1ccccc1 (stereo not given)	> 100 µM (inactive)
Cc1cc(NC(=O)NC(=O)c2ccccc2NC(=O)CN(C)C)ccc1Oc1ncc(Br)cn1	19.7 µM (inactive)
O=[N+]([O-])c1ccc(C(O)/C(=N/O)c2nc3ccc(Cl)cc3nc2O)cc1 (stereo not given)	> 100 µM (inactive)

---

System: UACC-62
method: NCI tumour cell line growth inhibition, 48 h
Active and inactive are the calls of the source. Cut-off read from the data, not from the text of the source: active = GI50 up to about 1.1 µM and inactive = higher.

smiles-string	GI50
CC(C)C(=O)/C=C/c1ccccc1	87.3 µM (inactive)
COC(=O)/C=C(\C(=O)OC)c1cc(C)c2cc(C(C)C)ccc(C)c1-2	32.2 µM (inactive)
Cn1c2ccccc2c2c3c(c4c5ccccc5n(C)c4c21)C(=O)N(Cc1ccccc1)C3=O	> 100 µM (inactive)
Cc1ccc(-c2n[nH]c(CC#N)n2)cc1	> 100 µM (inactive)
Cc1sc2nc(N(C)C)oc(=O)c2c1C	> 100 µM (inactive)
COC(=O)c1cc(C)n(CN(Cn2nc(C(=O)OC)cc2C)c2ccccc2)n1	15.1 µM (inactive)

---

Tested on: SK-MEL-28
method: NCI tumour cell line growth inhibition, 48 h
Activity calls are given as the source filed them. Cut-off read from the data, not from the text of the source: active = GI50 up to about 1.1 µM and inactive = higher.
Known GI50 of a selection of compounds

compound	target-or-system	GI50
CC/C(Cl)=N\OC(=O)Nc1ccccc1OC(F)(F)F	SK-MEL-28	20.1 µM (inactive)
COc1ccc2c(c1)C(=O)C1CCC(=O)N1C2c1ccc2c(c1)OCO2 (centres undefined)	SK-MEL-28	11.3 µM (inactive)
NS(=O)(=O)c1nnc(NS(=O)(=O)C(F)(F)F)s1	SK-MEL-28	> 100 µM (inactive)
Nc1ccc2[nH]c3c(-c4ccccc4)nccc3c2c1	SK-MEL-28	> 100 µM (inactive)
Cc1ccc(SSCCCS(=O)O)cc1	SK-MEL-28	45.7 µM (inactive)
Nc1nc(Nc2ccc(Cl)cc2)sc1C(=O)c1c[nH]c2ccccc12	SK-MEL-28	15.4 µM (inactive)
O=C1/C(=C/c2ccccc2O)N=C(c2ccccc2)N1c1nc2ccccc2s1	SK-MEL-28	21.3 µM (inactive)
COc1ccc2c(c1)CCc1cc(OC)ccc1/[N+]([O-])=[N+]\2[O-]	SK-MEL-28	18.7 µM (inactive)
C=C1C(=O)C[C@@]23CCC[C@@]12CC(O)C3 (some centres undefined)	SK-MEL-28	21.5 µM (inactive)
Oc1ccc(Cn2c(-c3ccc(O)c(O)c3)nc3ccccc32)cc1O	SK-MEL-28	22.1 µM (inactive)
Cc1nc(-n2nc(-c3ccccc3)cc2-c2ccccc2)sc1C(=O)/C=C/c1ccc(/C=C/C(=O)c2sc(-n3nc(-c4ccccc4)cc3-c3ccccc3)nc2C)cc1	SK-MEL-28	19.5 µM (inactive)
CC(C)C(=O)/C=C/c1ccccc1	SK-MEL-28	> 100 µM (inactive)
CC1(C)Oc2ccccc2[N+]([O-])=C1c1ccccc1	SK-MEL-28	> 100 µM (inactive)
COC(=O)CC1(CNC(=O)OCc2ccccc2)OCCO1	SK-MEL-28	> 100 µM (inactive)
CC(CN1NC12CCCC2)N1NC12CCCC2 (centres undefined)	SK-MEL-28	> 100 µM (inactive)
O=C(O)CCCCCO	SK-MEL-28	> 100 µM (inactive)
CC1(C)OCC2OC3([C@H](O)CCO)OC(C)(C)OC3C2O1 (some centres undefined)	SK-MEL-28	> 100 µM (inactive)
N#CC(NCc1cccc(CNC(C#N)c2ccccc2)c1)c1ccccc1 (centres undefined)	SK-MEL-28	18.1 µM (inactive)
C[C@H](C/C=C/C(C)(C)O)[C@H]1CC[C@@]2(C)[C@@H]3CC[C@H]4C(C)(C)[C@@H](O)CC[C@@]45C[C@@]35CC[C@]12C	SK-MEL-28	18.8 µM (inactive)
COc1nc2ncc([C@@H](OC(C)=O)[C@@H](COC(C)=O)OC(C)=O)nc2c(=O)[nH]1	SK-MEL-28	> 100 µM (inactive)
O=[N+]([O-])c1ccc(N/N=C2\C=CCCC2)c([N+](=O)[O-])c1	SK-MEL-28	> 100 µM (inactive)
Cc1c(NC(=O)CSC(=S)N(C)C)c(=O)n(-c2ccccc2)n1C	SK-MEL-28	> 100 µM (inactive)
CCOP(=O)(OCC)C1=NC=CC=CC1n1c(-c2ccccc2)nn(CC)c1=O (centres undefined)	SK-MEL-28	> 100 µM (inactive)
c1ccc2c(c1)cc1n2CC2CN=NC12 (centres undefined)	SK-MEL-28	> 100 µM (inactive)
O=C(CCC(=O)Nc1ccccc1C(F)(F)F)N/N=C1\C(=N\NC(=O)CCC(=O)Nc2ccccc2C(F)(F)F)C(c2ccc3c(c2)OCO3)Oc2ccccc21 (centres undefined)	SK-MEL-28	> 100 µM (inactive)
C/C(=N\N=C1/C(=O)OC(c2ccccc2)=C1C(=O)c1ccccc1)c1ccc([N+](=O)[O-])cc1	SK-MEL-28	54.7 µM (inactive)
Cc1nn(CNc2ccc(F)c(Cl)c2)c(=S)n1/N=C/c1ccc(-c2ccc(Cl)cc2Cl)o1	SK-MEL-28	19.7 µM (inactive)
O=c1c(Cl)c(Cl)cnn1CCCl	SK-MEL-28	2.08 µM (inactive)
CCC(C(=O)c1ccccc1)C(CCCC(=O)Nc1c(C)cccc1C)N=O (centres undefined)	SK-MEL-28	> 100 µM (inactive)
N=C1OC(CN2CCN(c3ccccc3)CC2)CN1C(=S)Nc1ccccc1 (centres undefined)	SK-MEL-28	84.3 µM (inactive)
CCN(CC)C1=Nc2ccccc2-n2ccnc2C1	SK-MEL-28	> 100 µM (inactive)
O=C1c2cccnc2C(=O)C2C3C=CC(C3)C12 (centres undefined)	SK-MEL-28	15.2 µM (inactive)
COc1ccc2c(c1)/C(=C/CCN(C)C)c1ccccc1S2	SK-MEL-28	19.4 µM (inactive)
CCCCN1/C(=N/Nc2n[nH]c(=O)c3ccccc23)SCC1c1ccc(Cl)cc1 (centres undefined)	SK-MEL-28	19.1 µM (inactive)
Cc1cc(N)ccc1/N=N\c1ccc(S(=O)(=O)CCOS(=O)(=O)O)cc1	SK-MEL-28	1.69 µM (inactive)
CSCSSC	SK-MEL-28	> 57.3 µM (inactive)
CCN(CC)c1ccc(/C=C/C=C2C(=O)NC(=S)NC2=O)cc1	SK-MEL-28	4.91 µM (inactive)
Cn1cco/c1=N/c1ccc(Cl)c(Cl)c1	SK-MEL-28	> 10 µM (inactive)
C=C1C(=O)C23CC1C[C@H](OC(C)=O)[C@H]2C1(C)C(OC(C)=O)C[C@H](O)C(C)(C)[C@H]1C(=O)[C@@H]3OC(C)=O (some centres undefined)	SK-MEL-28	4.59 µM (inactive)
CCCCCCCCCCC(C)CCCCCCC(=O)O (centres undefined)	SK-MEL-28	> 100 µM (inactive)
Cc1c2ccccc2cc2cccc[n+]12	SK-MEL-28	25.7 µM (inactive)
CCO/C=N\C1=C(C#N)SC2=N/C(=C\c3ccco3)C(=O)N21	SK-MEL-28	> 100 µM (inactive)
CCOC(=O)C(=CNc1ccc(S(N)(=O)=O)cc1)C(=O)OCC	SK-MEL-28	> 100 µM (inactive)
CCOC(=O)/C(=C/c1ccc(C#N)cc1)N(CC)CC	SK-MEL-28	> 100 µM (inactive)

---

Each record here notes measured GI50.
Test system: SK-MEL-2
method: NCI tumour cell line growth inhibition, 48 h
The source made the active and inactive calls. Rule as the data show it: active = GI50 up to about 1.1 µM and inactive = higher.

compound	GI50
O=C1C(c2c(O)[nH]c3ccc(F)cc23)=Nc2ccccc21	14.5 µM (inactive)
N#C/C(C(=O)Nc1ccccc1)=C(/N)N1CCCCC1	> 100 µM (inactive)
CC(C)NC(=O)OCc1c(COC(=O)NC(C)C)c(-c2cc[n+](COC(=O)Cc3ccccc3)cc2)n2c1CCC2	> 100 µM (inactive)
COc1cc(N/N=C/C#N)cc(OC)c1OC	> 10 µM (inactive)
CC1C[C@]2(C[C@@H](C)C(=O)O2)O[C@@H]2CC3(C)[C@@H]4CCC5C(C)(C)OC(=O)C[C@H]6OO[C@]4(CC[C@]3(C)C12)CC56O (stereo not given in full)	> 100 µM (inactive)

Reference source: ChEMBL document CHEMBL1201862
